# tested_on: UniProt P18901
# Sequence (P18901 whole entry): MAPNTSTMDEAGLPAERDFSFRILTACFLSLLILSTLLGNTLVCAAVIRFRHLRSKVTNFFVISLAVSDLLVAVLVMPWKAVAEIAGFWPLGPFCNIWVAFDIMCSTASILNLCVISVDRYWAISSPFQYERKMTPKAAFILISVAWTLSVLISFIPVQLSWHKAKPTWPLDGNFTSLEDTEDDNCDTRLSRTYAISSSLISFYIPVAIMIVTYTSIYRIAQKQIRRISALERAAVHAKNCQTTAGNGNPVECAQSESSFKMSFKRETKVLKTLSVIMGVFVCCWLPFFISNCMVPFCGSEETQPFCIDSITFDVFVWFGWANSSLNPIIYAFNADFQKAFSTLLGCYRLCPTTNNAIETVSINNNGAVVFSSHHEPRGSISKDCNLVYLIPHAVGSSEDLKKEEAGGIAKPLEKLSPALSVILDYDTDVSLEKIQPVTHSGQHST
# test_summary: Binding affinity to rat dopamine D1 receptor
quantity_measured: IC50

Incoming: Find the recorded IC50 belonging to CN(C)C(=O)N[C@H]1CC[C@H](CCN2CCN(c3cccc(Cl)c3Cl)CC2)CC1.Cl [CARIPRAZINE HYDROCHLORIDE] and report it.
Outgoing: > 1 µM

Hey, just so you know, these numbers are from ChEMBL document CHEMBL2021900.
